Test system: K562 CRISPRi cells
assay-method-text: Constant region variant library pooled growth screen, K562
Type: cell-based, human
test-parameters: sgRNA constant region variants; relative to the original, un-modified constant region cr995; CRISPRi
endpoint-label: Mean relative activity
The response must contain the number and no unit.

Examples with answers:
[
  {
    "molecule": "cr127 (nucleic acid, listed as DNA, chemistry not fully specified) guide: GTTTAAGAGCTAAGCTGGAAACAGCATAGCAAGTTTAAATATGGCTAGTCCGTTATCAACTTGAGAAAGTGGCACCGACTCGGTGCT",
    "Mean relative activity": 0.3659
  },
  {
    "molecule": "cr315 (nucleic acid, listed as DNA, chemistry not fully specified) guide: GTTTAAGAGCTAAGCTGGAAACAGCATAGCAAGTTTAAATAAAGCTAGTCTGTTATCAACTGGAAACAGTGGCCCCGAGTCGGGGCT",
    "Mean relative activity": 0.3642
  },
  {
    "molecule": "cr724 (nucleic acid, listed as DNA, chemistry not fully specified) guide: GTTTAAGAGCTAAGCTGGAAACAGCATAGCAAGTTTAAATAAGGCTAGTCCGTTATCGACTTGAAAAAGTGGCACCGAGTCGGTGCT",
    "Mean relative activity": 0.5177
  },
  {
    "molecule": "cr252 (nucleic acid, listed as DNA, chemistry not fully specified) guide: GTTTAAGAGCTAAGCTGGAAACAGCATAGCAAGTTTAAATAAGGCTAGTCCATTATCAACTTGAAAAAGTGGCACCGAGTCGGTGCT",
    "Mean relative activity": 0.3581
  },
  {
    "molecule": "cr150 (nucleic acid, listed as DNA, chemistry not fully specified) guide: GTTTAAGAGCTAAGCTGGAAACAGCATAGCAAGTTTAAATAAGGCTAGTCCGTTATCAACTTGAAAAAGTGGCAGCGAGTCGGTGCT",
    "Mean relative activity": 0.523
  }
]

In: # Mean relative activity lookup, item cr242 (nucleic acid, listed as DNA, chemistry not fully specified) guide: GTTTAAGAGCTAAGCTGGAAACAGCATAGCAAGTTTAAATAAGGGTACTCCGTTATCAAGTTGAAAAACTGGCACCTAGTAGGTGCT
Out: 0.3244

In: # Mean relative activity lookup, item cr794 (nucleic acid, listed as DNA, chemistry not fully specified) guide: GTTTAAGAGCTAAGCTGGAAACAGCATAGCAAGTTTAAATAAGGCTAGTCCGTTATCAACTTGAAAAAGTGCCACGGAGTCCGTGGT
Out: 0.411

In: # Mean relative activity lookup, item cr566 (nucleic acid, listed as DNA, chemistry not fully specified) guide: GTTTAAGAGCTAAGCTGGAAACAGCATAGCAAGCTTAAATAAGGCTAGTCCGTTATCAACATGAAAATGTGGCACCGAGTCGGTGCT
Out: 0.4299

In: # Mean relative activity lookup, item cr425 (nucleic acid, listed as DNA, chemistry not fully specified) guide: GTTTAAGAGCTAAGCTGGAAACAGCATAGCAAGTTTAAATAAGGCTAGTCCGTTATCATCCTGAAAATGCGGCACCGAGTCGGTGCT
Out: 0.4409

In: # Mean relative activity lookup, item cr904 (nucleic acid, listed as DNA, chemistry not fully specified) guide: GTTTAAGAGCTAAGCTGGAAACAGCATAGCAAGTTTAAATAAGTCTAGTACGTTATCAATTTGAAAAAATGGCAACGAGTCGTTGCT
Out: 0.4677

In: # Mean relative activity lookup, item cr196 (nucleic acid, listed as DNA, chemistry not fully specified) guide: GTTTAAGAGCTAAGCTGGAAACAGCATAGCAAGTTTAAATAAGGCTAGTCCGTTATCAACTTGAAAAAGTGGCAGCCAGTGGCTGCT
Out: 0.3626

In: # Mean relative activity lookup, item cr511 (nucleic acid, listed as DNA, chemistry not fully specified) guide: GTTTAAGAGCTAAGCTGGAAACAGCATTGCCAGTTTAAATAAGGCTAGTCCGTTATCAACTTGAAAAAGTGGCACCGCGTCGGTGCT
Out: 0.5247

In: # Mean relative activity lookup, item cr016 (nucleic acid, listed as DNA, chemistry not fully specified) guide: GTTTATGAGCTAAGCTGGAAACAGCATAGCAAGTTTAAATAAGGCTAGTCCGTTATCAACTTGAAAAAGTGGCACCGAGTCGGTGCT
Out: 0.4876

Data provenance: patent US20220259593A1
